target.desc: Acetylcholinesterase (Electrophorus electricus, UniProt O42275)
Sequence (O42275 whole entry): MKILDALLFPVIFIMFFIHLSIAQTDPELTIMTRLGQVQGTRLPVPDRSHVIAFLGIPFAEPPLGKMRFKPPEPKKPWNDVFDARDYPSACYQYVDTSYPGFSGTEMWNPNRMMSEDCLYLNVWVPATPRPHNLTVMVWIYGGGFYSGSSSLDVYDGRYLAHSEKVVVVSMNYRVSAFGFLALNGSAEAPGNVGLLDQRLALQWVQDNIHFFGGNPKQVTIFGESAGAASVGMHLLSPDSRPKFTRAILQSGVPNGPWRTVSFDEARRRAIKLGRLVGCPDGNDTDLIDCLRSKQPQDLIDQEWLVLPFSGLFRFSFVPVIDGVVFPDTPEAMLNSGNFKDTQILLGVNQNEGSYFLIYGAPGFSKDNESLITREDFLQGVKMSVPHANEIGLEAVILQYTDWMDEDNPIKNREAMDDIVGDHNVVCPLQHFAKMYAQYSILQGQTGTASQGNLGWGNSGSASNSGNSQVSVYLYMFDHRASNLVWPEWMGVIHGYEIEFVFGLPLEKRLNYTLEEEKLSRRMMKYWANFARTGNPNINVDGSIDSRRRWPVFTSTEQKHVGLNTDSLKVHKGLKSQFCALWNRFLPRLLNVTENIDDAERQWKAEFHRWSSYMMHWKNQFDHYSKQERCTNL

chemical.string	units.text	sign.qualifier	IC50
COc1cc(/C=C/C(=O)O)ccc1OCCCO[N+](=O)[O-]	nM	>	10000
COc1cc(/C=C/C(=O)NCCNc2c3c(nc4ccccc24)CCCC3)ccc1OCCO[N+](=O)[O-]	nM	=	17.2
COc1cc(/C=C/C(=O)NCCNc2c3c(nc4ccccc24)CCCC3)ccc1O	nM	=	62
COc1cc(/C=C/C(=O)NCCCCNc2c3c(nc4ccccc24)CCCC3)ccc1OCCO[N+](=O)[O-]	nM	=	22.1
NCCCCCCCCNc1c2c(nc3ccccc13)CCCC2	nM	=	2.9
COc1cc(/C=C/C(=O)NCCNc2c3c(nc4ccccc24)CCCC3)ccc1OCCCCO[N+](=O)[O-]	nM	=	27.1
COc1cc(/C=C/C(=O)NCCCCCCNc2c3c(nc4ccccc24)CCCC3)ccc1OCCCO[N+](=O)[O-]	nM	=	4.4

====

Let's go through some IC50 measurements on Cholinesterase (Equus caballus, UniProt P81908) together.
Sequence (P81908 whole entry): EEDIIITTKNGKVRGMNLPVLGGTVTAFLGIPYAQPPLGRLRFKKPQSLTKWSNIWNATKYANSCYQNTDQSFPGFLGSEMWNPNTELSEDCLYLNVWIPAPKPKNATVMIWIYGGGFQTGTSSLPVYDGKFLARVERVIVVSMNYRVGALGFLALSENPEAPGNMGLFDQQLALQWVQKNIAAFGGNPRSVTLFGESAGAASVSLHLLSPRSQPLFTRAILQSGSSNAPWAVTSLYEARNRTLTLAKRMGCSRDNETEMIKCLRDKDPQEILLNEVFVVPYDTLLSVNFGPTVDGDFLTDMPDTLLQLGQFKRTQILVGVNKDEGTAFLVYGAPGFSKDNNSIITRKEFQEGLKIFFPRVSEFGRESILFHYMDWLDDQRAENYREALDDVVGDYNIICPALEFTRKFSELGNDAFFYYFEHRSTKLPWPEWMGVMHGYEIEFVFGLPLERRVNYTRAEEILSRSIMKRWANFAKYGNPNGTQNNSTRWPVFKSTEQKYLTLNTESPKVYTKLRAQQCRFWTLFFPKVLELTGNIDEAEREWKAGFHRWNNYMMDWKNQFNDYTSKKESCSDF

chemical.string	units.text	sign.qualifier	IC50
COc1cc(/C=C/C(=O)O)ccc1OCCCCO[N+](=O)[O-]	nM	>	10000
COc1cc(/C=C/C(=O)NCCCCCCCCNc2c3c(nc4ccccc24)CCCC3)ccc1OCCCCO[N+](=O)[O-]	nM	=	1.8
COc1cc(/C=C/C(=O)NCCNc2c3c(nc4ccccc24)CCCC3)ccc1OCCCO[N+](=O)[O-]	nM	=	8.4
COc1cc(/C=C/C(=O)O)ccc1OCCO[N+](=O)[O-]	nM	>	10000
NCCNc1c2c(nc3ccccc13)CCCC2	nM	=	30.9
COc1cc(/C=C/C(=O)NCCCCCCNc2c3c(nc4ccccc24)CCCC3)ccc1OCCO[N+](=O)[O-]	nM	=	5.2
NCCCNc1c2c(nc3ccccc13)CCCC2	nM	=	19.7
COc1cc(/C=C/C(=O)NCCCCNc2c3c(nc4ccccc24)CCCC3)ccc1OCCCO[N+](=O)[O-]	nM	=	23.6
COc1cc(/C=C/C(=O)NCCCNc2c3c(nc4ccccc24)CCCC3)ccc1OCCCCO[N+](=O)[O-]	nM	=	6.2
COc1cc(/C=C/C(=O)NCCCCNc2c3c(nc4ccccc24)CCCC3)ccc1OCCCCO[N+](=O)[O-]	nM	=	4.7
COc1cc(/C=C/C(=O)NCCCNc2c3c(nc4ccccc24)CCCC3)ccc1OCCO[N+](=O)[O-]	nM	=	24.9
COc1cc(/C=C/C(=O)NCCCNc2c3c(nc4ccccc24)CCCC3)ccc1OCCCO[N+](=O)[O-]	nM	=	17.7
COc1cc(/C=C/C(=O)NCCCCNc2c3c(nc4ccccc24)CCCC3)ccc1OCCO[N+](=O)[O-]	nM	=	20.2
COc1cc(/C=C/C(=O)NCCCCCCNc2c3c(nc4ccccc24)CCCC3)ccc1OCCCCO[N+](=O)[O-]	nM	=	1.4
COc1cc(/C=C/C(=O)NCCNc2c3c(nc4ccccc24)CCCC3)ccc1OCCO[N+](=O)[O-]	nM	=	10.5
COc1cc(/C=C/C(=O)NCCNc2c3c(nc4ccccc24)CCCC3)ccc1OCCCCCCO[N+](=O)[O-]	nM	=	21.8
NCCCCCCCCNc1c2c(nc3ccccc13)CCCC2	nM	=	2.8
COc1cc(/C=C/C(=O)NCCCCCCCCNc2c3c(nc4ccccc24)CCCC3)ccc1O	nM	=	27.4
COc1cc(/C=C/C(=O)NCCCCNc2c3c(nc4ccccc24)CCCC3)ccc1O	nM	=	9.8
